Reported folding enthalpy by item:
experiment: folding enthalpy; higher = less favourable; fluorescence melt of hairpins on a sequencing array, two-state fit; conditions: sodium 0.088 M
Express it in kJ/mol; write the number only.

{"input.sequence": "GGCCATGGAAACACGGCC ((((.((....)).))))", "quantity.measured": "folding enthalpy", "recorded.value": -190}

// recorded folding enthalpy for GCCTCCGAAAGGAACGGC ((((((....)))..))) : -106

// recorded folding enthalpy for GACTTTGAAAAAAGTC ((((((....)))))) : -170

// recorded folding enthalpy for GTGTACGAAAGTAATCAC ((((((....)))..))) : -76.5

// recorded folding enthalpy for GGTCCAGGAAACTGGATC (.(((((....))))).) : -134

// recorded folding enthalpy for GACACACGAAAGTGAGTC (((.(((....))).))) : -130

Each recorded value in this set is attributed to the array DNA melting data of Ke et al. (doi:10.1101/2024.01.08.574731).
